- assay.procedure: Toxicity liver stage against HepG2, at 10uM
- Assay type: cell-based
- Parameters: test concentration 10 uM, cell line HepG2-A16-CD81EGFP
- measurement.conditions: human, HepG2-A16-CD81EGFP cells; read-out: INHIBITION
So I've got a bunch of molecules here, and I need their cytotoxicity at 10 µM values.

Exam item: Kindly indicate its recorded cytotoxicity at 10 µM. Item: CC(C)NC(=O)N1CCC2(COCc3cnc(-c4cccnc4)nc32)C1 (stereo not drawn)
Marked response: 1.77%

Exam item: Give the reported value of cytotoxicity at 10 µM for this record: Cc1nc(C)n(CC2CCCN(Cc3nc(-c4ccco4)no3)C2)n1 (stereo not drawn)
Marked response: -11.5%

Exam item: Provide one value: measured cytotoxicity at 10 µM of CN(c1ccncn1)C1CC2(CCN(C(=O)CCc3cccs3)C2)C1 (stereo not drawn)
Marked response: -1.34%

Exam item: Quickly give me recorded cytotoxicity at 10 µM for `Cc1cc(C)c(CNC(=O)NCc2ccc(F)cc2)c(=O)[nH]1`
Marked response: -6.34%

Exam item: Tell me cytotoxicity at 10 µM reported for `Cc1cccnc1CN1CCN(C[C@]2(O)CCCN3CCCC[C@@H]32)CC1`
Marked response: -0.418%

Exam item: Could you please provide reported cytotoxicity at 10 µM for `O=C(O)Cn1nc(C2CC2)c2c(-c3cccs3)ccnc21` ? Thanks!
Marked response: -11.6%

Exam item: Supply reported cytotoxicity at 10 µM belonging to this molecule: COc1cc(CC(O)CO)c(OC)c2c1OCO2 (stereo not drawn)
Marked response: -9.96%

Exam item: Entry COc1ccc(C2CCCN2C(=O)NCCn2ccnc2)cc1OC (stereo not drawn) needs its cytotoxicity at 10 µM filled in; supply it.
Marked response: -2.16%

Exam item: Please list cytotoxicity at 10 µM recorded for the molecule `N#Cc1ccc(N2CCN(c3ccc4nncn4n3)CC2)nc1`
Marked response: -13.3%

Exam item: Give the reported cytotoxicity at 10 µM for this molecule. O=C(NCCc1ccccc1Cl)NCC1(O)CCSC1 (stereo not drawn)
Marked response: -6.17%

Exam item: Determine its reported cytotoxicity at 10 µM: `CC(=O)NC1(C(=O)N2CCC(Nc3cccnn3)CC2)CCCCC1`
Marked response: -5.26%

Exam item: Identify measured cytotoxicity at 10 µM corresponding to CC(C)C(O)CNC(=O)Nc1cnn(C(C)C)c1 (stereo not drawn)
Marked response: 3.57%

Exam item: Please indicate cytotoxicity at 10 µM recorded for CCOCC(O)CN1CCN(C(=O)C2CCCC2)CC1 (stereo not drawn)
Marked response: -13%

Exam item: Give the value of cytotoxicity at 10 µM reported for the following: CC(C)C(NC(N)=O)C(=O)N1CCN(c2ccccc2Cl)C(=O)C1 (stereo not drawn)
Marked response: -1.56%

Exam item: Look up cytotoxicity at 10 µM of `O=C(CN1CCOCS1(=O)=O)NCCc1ccc(Cl)cc1` and report it.
Marked response: -5.14%

Exam item: For the molecule Cc1cccc(N2CCCC3(C2)CN(S(=O)(=O)C2CC2)CCO3)c1 (stereo not drawn) , give its measured cytotoxicity at 10 µM value.
Marked response: 11%

Exam item: Respond only with cytotoxicity at 10 µM recorded for `CN1CCN(CCOc2ccc(NC(=O)c3ccc[nH]3)cc2)CC1`
Marked response: -3.26%

Exam item: Supply cytotoxicity at 10 µM value. Item: `CS(=O)(=O)N1CCc2[nH]cnc2C12CCN(C(=O)c1cccnc1)CC2`
Marked response: 2.62%

Exam item: Read off the recorded cytotoxicity at 10 µM for `CNC(=O)NC(=O)CNc1cc(C(=O)OC)cc(C(F)(F)F)c1`
Marked response: -0.0264%

Exam item: Indicate its recorded cytotoxicity at 10 µM; the molecule in question is `Cc1cccc(CN2CCc3onc(CN(C)C)c3C2)n1`
Marked response: -4.62%

Exam item: Specify measured cytotoxicity at 10 µM for `Cc1nsc(NC(=O)NC2(CN3CCCCC3)CCCCC2)n1` .
Marked response: 10.6%

Exam item: Hello, please tell me recorded cytotoxicity at 10 µM for this one: COc1cccc(NC(=O)NCC2CCCN(C3CCOCC3)C2)c1 (stereo not drawn)
Marked response: -2.48%

Exam item: Specify cytotoxicity at 10 µM for `O=C(C1CC1)N1CC[C@H](c2nc3ccccc3o2)C1` and stop.
Marked response: -4.07%

Exam item: Note down cytotoxicity at 10 µM recorded for COc1cccc(OC)c1CNC(Cc1ccsc1)c1ccc(C)cn1 (stereo not drawn)
Marked response: 2.75%

Exam item: In one line, give reported cytotoxicity at 10 µM of the entry `CS(=O)(=O)c1cccc(S(=O)(=O)NC(=O)CC2CCCC2)c1` .
Marked response: -7.59%

Exam item: In one line, give reported cytotoxicity at 10 µM of the entry `CCc1ccc(C(=O)N(CC)Cc2ccoc2)cc1S(C)(=O)=O` .
Marked response: -4.89%

Exam item: For the molecule `O=C(NCc1ccccc1CN1CCC(O)CC1)Nc1cccnc1` , report cytotoxicity at 10 µM.
Marked response: -8.8%

Exam item: Report measured cytotoxicity at 10 µM; entry is `O=C(c1ccn(COc2ccc(F)cc2)n1)N1CCCCCC1`
Marked response: 9.84%

Exam item: Provide cytotoxicity at 10 µM value for the following molecule: `Cc1cc(NCCC(=O)NC2CCCC2)nc(-c2ccncc2)n1`
Marked response: 2.25%

Exam item: Dear colleague, please send me the reported cytotoxicity at 10 µM for `c1cnc(-c2nc(CN3CCN(CC4CC4)CC3)cs2)nc1` when you can.
Marked response: -10.1%

Exam item: Please report cytotoxicity at 10 µM for the following molecule: `COc1cccc(-c2cc(NCC(=O)O)nc3[nH]ccc23)n1`
Marked response: 8.09%

Exam item: Return reported cytotoxicity at 10 µM. Input molecule: CC(NC(=O)Nc1cccnc1N1CCCC1)c1nncn1C (stereo not drawn)
Marked response: -10.1%

Exam item: For the molecule `CNS(=O)(=O)CC(=O)N(Cc1c(F)cccc1F)C1CCCC1` , report cytotoxicity at 10 µM.
Marked response: -1.98%

Exam item: Identify measured cytotoxicity at 10 µM corresponding to `CC(C)(C)c1nc(CN2CCC(c3nc4cc(Cl)ccc4o3)CC2)no1`
Marked response: 3.9%

Exam item: Output cytotoxicity at 10 µM of Cn1cnc2c1C(COCC1CC1)CN(Cc1ccc3c(c1)OCO3)C2 (stereo not drawn)
Marked response: -12%

Exam item: Return cytotoxicity at 10 µM (reported value) for this molecule: `Nc1ncc(-c2cccc(NC(=O)[C@@H]3CCCCN3)c2)cn1`
Marked response: 1.86%

Exam item: Given CNC(=O)C1CCCN1C(=O)NCCCc1cccc(F)c1 (stereo not drawn) , respond with its cytotoxicity at 10 µM.
Marked response: 2.75%

Exam item: Specify reported cytotoxicity at 10 µM for the molecule shown: `CCn1cc(CNc2ccc(Br)c(OC)c2)cn1`
Marked response: 5.42%

Exam item: Give me measured cytotoxicity at 10 µM, please, for this molecule: `CN(C(=O)C1CCCCC1)[C@@H]1CCC[C@@H](N2CCOCC2)[C@@H]1O`
Marked response: -6.33%

Exam item: Give cytotoxicity at 10 µM for the following molecule: CN(C)C(CNC(=O)c1cccc(C(N)=O)c1)c1ccccc1Cl (stereo not drawn)
Marked response: -4.83%

Exam item: In one line, give reported cytotoxicity at 10 µM of the entry `Cn1nc(COc2cccnc2)c2c1CCN(CC1CC1)C2` .
Marked response: -97.8%

Exam item: Give reported cytotoxicity at 10 µM value for CCCc1n[nH]c(C2CN(C(=O)c3ccc(C)[nH]c3=O)CCO2)n1 (stereo not drawn)
Marked response: 0.238%

Exam item: Identify measured cytotoxicity at 10 µM corresponding to CC1c2ncc(COCC3CC3)n2CCN1C(=O)c1ccnnc1 (stereo not drawn)
Marked response: 4.66%

Exam item: Entry CS(=O)(=O)c1ncc(CN2CCCC(C(N)=O)C2)n1CC1CCCCC1 (stereo not drawn) needs its cytotoxicity at 10 µM filled in; supply it.
Marked response: -2.35%

Exam item: Look up and report measured cytotoxicity at 10 µM for this entry: `CN(C)C1CCN(C(=O)NCc2ccc(Cn3cncn3)cc2)CC1`
Marked response: -3.6%

Exam item: Look up and report measured cytotoxicity at 10 µM for this entry: O=C(CCCNC(=O)NCC1CCCO1)Nc1ccc(Cl)cc1 (stereo not drawn)
Marked response: -4.52%

Exam item: Give recorded cytotoxicity at 10 µM. CC(C)N(C)CC(=O)NCC(Cc1ccc(F)cc1)C(N)=O (stereo not drawn)
Marked response: 13.6%

Exam item: Look up and report measured cytotoxicity at 10 µM for this entry: CCN(CC)c1ccc(C(=O)N2CCCC(n3cncn3)C2)cn1 (stereo not drawn)
Marked response: -4.78%
